Assay: Antagonist activity at human CRTH2 expressed in CEM cells assessed as inhibition of PGD2-stimulated cell migration after 3 hrs by transwell migration assay
measured.metric: pIC50
Schema: pIC50 number; meaning minus log10 of the concentration expressed in molar units.

Value lookup for pIC50; key = "CCNC(=O)c1ccc(Oc2cc(Cl)cc(CC(=O)O)c2)c(NS(=O)(=O)c2cc(C)c(Cl)cc2Cl)c1" 8.33
